The entries below come with measured AIRE transcriptional activation functional score values attached.
B1: library; numbered along this chain (parent)
chain: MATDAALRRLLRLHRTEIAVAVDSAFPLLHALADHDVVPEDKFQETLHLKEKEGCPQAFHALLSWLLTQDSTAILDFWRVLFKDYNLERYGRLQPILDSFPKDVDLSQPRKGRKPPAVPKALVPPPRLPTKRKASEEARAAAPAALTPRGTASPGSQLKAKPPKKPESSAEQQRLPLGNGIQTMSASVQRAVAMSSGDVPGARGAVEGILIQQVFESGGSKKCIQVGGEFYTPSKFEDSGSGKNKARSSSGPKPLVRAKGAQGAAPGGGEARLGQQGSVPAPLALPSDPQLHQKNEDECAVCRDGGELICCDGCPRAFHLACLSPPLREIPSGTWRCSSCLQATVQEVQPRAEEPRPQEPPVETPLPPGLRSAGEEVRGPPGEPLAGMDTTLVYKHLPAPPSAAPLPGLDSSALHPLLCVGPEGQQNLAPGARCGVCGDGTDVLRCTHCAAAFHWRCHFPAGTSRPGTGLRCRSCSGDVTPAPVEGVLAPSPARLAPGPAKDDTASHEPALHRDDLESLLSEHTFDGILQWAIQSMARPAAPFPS

Variants of: B1
assay-details: AIRE transcriptional activation functional score (insulin promoter-GFP; nonsense median 0, synonymous median 1) (normalised score); higher = higher AIRE activity (more reporter activation)
measurement-conditions: with insulin promoter-GFP reporter in HEK293
Answer using only a numeral; do not append any unit.

Answered examples (3):
The reported value for L392M in terms of AIRE transcriptional activation functional score is 0.734

Given item V123Q , the value recorded as its AIRE transcriptional activation functional score is 1.31

# AIRE transcriptional activation functional score (variant: A300Y ) is 0.856

---
Recorded result, R15Q , AIRE transcriptional activation functional score: 0.45
